# TESTED_SYSTEM: T1, human CD80-murine Ig fusion protein (human)
# T1 construct: Bought (Ancell #510-820); also called hCD80-mIg; human CD80-murine IgG
# T1 chain: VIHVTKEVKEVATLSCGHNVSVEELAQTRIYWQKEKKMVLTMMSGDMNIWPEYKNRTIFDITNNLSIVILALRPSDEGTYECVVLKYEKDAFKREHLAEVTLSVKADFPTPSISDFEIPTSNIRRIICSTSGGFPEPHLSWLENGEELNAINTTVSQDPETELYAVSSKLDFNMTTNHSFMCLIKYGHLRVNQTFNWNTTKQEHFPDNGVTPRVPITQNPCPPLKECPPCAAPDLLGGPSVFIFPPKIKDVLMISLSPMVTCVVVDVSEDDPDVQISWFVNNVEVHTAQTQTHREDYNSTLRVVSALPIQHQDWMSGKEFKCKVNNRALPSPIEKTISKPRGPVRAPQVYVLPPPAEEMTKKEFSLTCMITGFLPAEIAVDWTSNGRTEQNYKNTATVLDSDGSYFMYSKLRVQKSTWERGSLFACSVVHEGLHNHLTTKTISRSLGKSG
# MEASUREMENT_NOTES: SPR Biacore, hCD80-mIg captured

BINDER | Kd
D3-50-IgG2 (Fc fusion) MHVAQPAVVLASSRGIASFVCEYASPGKANEVRVTVLRQADSQVTEVCAMTYMKGDELTFLDDPICTGTFSGNQVNLTIQGLRAMDTGLYICKVELMYPPPYYLGIGNGTQIYVIDPEPCPDSDERKCCVECPPCPAPPVAGPSVFLFPPKPKDTLMISRTPEVTCVVVDVSHEDPEVQFNWYVDGVEVHNAKTKPREEQFNSTFRVVSVLTVVHQDWLNGKEYKCKVSNKGLPAPIEKTISKTKGQPREPQVYTLPPSREEMTKNQVSLTCLVKGFYPSDIAVEWESNGQPENNYKTTPPMLDSDGSFFLYSKLTVDKSRWQQGNVFSCSVMHEALHNHYTQKSLSLSPG | 0.439 to 1.75 nM
D3-52-IgG2 (Fc fusion) MHVAQPAVVLASSRGIASFVCEYASPGKANEIRVTVLRQADSQVTEVCAMTYMKGNELTFLDDPICTGTFSGNQVNLTIQGLRAMDTGLYICKVELMYPPPYYLGIGNGTQIYVIDPEPCPDSDERKCCVECPPCPAPPVAGPSVFLFPPKPKDTLMISRTPEVTCVVVDVSHEDPEVQFNWYVDGVEVHNAKTKPREEQFNSTFRVVSVLTVVHQDWLNGKEYKCKVSNKGLPAPIEKTISKTKGQPREPQVYTLPPSREEMTKNQVSLTCLVKGFYPSDIAVEWESNGQPENNYKTTPPMLDSDGSFFLYSKLTVDKSRWQQGNVFSCSVMHEALHNHYTQKSLSLSPG | 0.439 to 1.75 nM
